Record form. Attribute: inhibition. Fill in for each entry.
Target: Tubulin (Homo sapiens) (UniProt P68371+Q9H4B7+P0DPH7+P68366+Q13509+Q71U36+P04350+Q3ZCM7+P07437+P68363+Q9BQE3+Q6PEY2+Q13885+Q9BVA1+Q9BUF5)
Assay: Inhibition of tubulin polymerization (unknown origin) at 10 uM measured upto 30 mins by spectrophotometry based analysis relative to control
Type: protein-complex assay
Number in %, nothing else.

Param item = COc1ccc(/C=C(/C(=O)Nc2ccc(C(C)C)cc2)c2cc(OC)c(OC)c(OC)c2)cc1OC(C)=O ; retrieve measured inhibition.
3

What about COc1ccc(/C=C(/C(=O)Nc2ccccc2)c2cc(OC)c(OC)c(OC)c2)cc1O ?
62

What about COc1ccc(/C=C(/C(=O)Nc2cc(OC)c(OC)c(OC)c2)c2cc(OC)c(OC)c(OC)c2)cc1OC(C)=O ?
34

What about COc1ccc(/C=C(/C(=O)Nc2ccc(Cl)cc2)c2cc(OC)c(OC)c(OC)c2)cc1OC(C)=O ?
3
